These entries and their values trace back to paper PMC9090415.

molecular target: P. falciparum apicoplast DNA polymerase (Pf-apPOL) (Plasmodium falciparum, UniProt Q8ILY1); assay: Fluorescence-based high-throughput DNA polymerase assay (molecular beacon), primary screen and dose-response; type: biochemical; conditions: DRC-2; 90'; conc 80;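 note: test concentration in µM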
Sequence (Q8ILY1 entry or part of it): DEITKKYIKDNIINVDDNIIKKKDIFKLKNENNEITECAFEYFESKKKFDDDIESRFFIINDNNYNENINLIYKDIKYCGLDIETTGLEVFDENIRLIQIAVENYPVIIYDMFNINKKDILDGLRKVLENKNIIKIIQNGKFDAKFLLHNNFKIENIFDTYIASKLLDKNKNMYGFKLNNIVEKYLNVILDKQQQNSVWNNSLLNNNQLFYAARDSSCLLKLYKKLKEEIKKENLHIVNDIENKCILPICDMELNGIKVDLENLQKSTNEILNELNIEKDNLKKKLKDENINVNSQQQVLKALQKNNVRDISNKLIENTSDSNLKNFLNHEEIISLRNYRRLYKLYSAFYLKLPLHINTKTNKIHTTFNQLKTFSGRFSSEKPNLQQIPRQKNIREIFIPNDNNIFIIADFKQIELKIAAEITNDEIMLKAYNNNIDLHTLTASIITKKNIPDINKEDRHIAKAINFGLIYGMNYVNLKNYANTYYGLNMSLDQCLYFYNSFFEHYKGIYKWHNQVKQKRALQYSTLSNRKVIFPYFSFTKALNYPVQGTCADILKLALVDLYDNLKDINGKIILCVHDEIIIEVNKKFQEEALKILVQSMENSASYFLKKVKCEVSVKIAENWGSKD
T means recorded % inhibition ApPOL 90' is 80% or above; F means it is below 80%.

The examples below pair each entry with its known result.
| molecule | label |
| --- | --- |
| Cc1ccccc1NC(=O)Cn1ccc2c(=O)[nH]ccc21 [Molecule 50, O=C(Cn1ccc2c1cc[nH]c2=O)Nc1ccc(cc1)C] | F |
| CC(C)CCNC(=O)c1cnn2c(O)cc(CSc3ccc(Cl)cc3)nc12 | T |

Here is the next item to consider.
Textbook exercise: given the entry O=C1Nc2ccc(I)cc2C1=Cc1cc(Br)c(O)c(Br)c1 , state whether its % inhibition ApPOL 90' is greater than or equal to 80%.
F
